# experimental.protocol: basal RPMI8226 viability, no added stimulus, profiling panel, cell-based, calcein-AM fluorescence, 48 h, PK04 Diversity Set (AID 1166);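 further: cells grown under basal conditions without added stimulus; test concentration not given here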
# conditions.used: RPMI8226 myeloma viability, higher = more signal
assay.readout: z-score
Answer with the value's number alone.

Prompt: Requested field: z-score. Item: "C=CC[C@]1(C(=O)OC)N=C(c2ccc(OCCCO)cc2)O[C@H]1c1ccccc1N=[N+]=[N-]"
Response: -2.37

Prompt: Entry "C/C=C/CN(C(=O)C#Cc1ccccc1)[C@H](CO[Si](C)(C)C(C)(C)C)c1ccccc1" please
Response: -3.4

Prompt: Proceed to "[N-]=[N+]=NCc1ccccc1C[C@@]1(C(=O)O)N=C(c2ccc(OCCCO)cc2)O[C@@H]1c1ccccc1CN=[N+]=[N-]"
Response: -2.21

* * *

# experimental.protocol: HepG2 liver cancer cell viability effects, profiling panel, resazurin fluorescence, 24 h, PK04 Diversity Set (AID 1172); further: test concentration not given here
# conditions.used: higher = more signal
What z-score was measured for each of the following?
Number only, please.

Prompt: Which z-score value is on record for "CO[C@H]1O[C@H](CO)[C@@H](OC(=O)Nc2ccc3c(c2)OCO3)[C@@H]2OC(=O)[C@@H](Cc3ccccc3)C/C=C/C[C@H](Cc3ccccc3)C(=O)O[C@@H]12" ?
Response: -1.37

Prompt: How about this compound: "O=C1O[C@H](c2ccccc2)[C@H](c2ccccc2)N2[C@H]1[C@@H](C(=O)N1CCN(c3ncccn3)CC1)[C@]1(C(=O)Nc3ccccc31)[C@H]2c1ccc(O)cc1"
Response: -0.291

Prompt: Now give it for "COCCCNC(=O)[C@@H]1c2ccccc2C(=O)N(C2CCCCC2)[C@H]1c1ccc(CO)cc1" too.
Response: 0.559

Prompt: Repeat with "COc1ccccc1CN1C(=O)c2ccccc2[C@](Cc2ccccc2I)(C(=O)NCCCN(C)C)[C@@H]1c1ccc(CO)cc1"
Response: -6.49

Prompt: Same read-out for "CO[C@H]1O[C@H](CO)[C@@H](OC(=O)Nc2ccccc2)[C@@H]2OC(=O)[C@H](Cc3ccccc3)C/C=C/C[C@@H](Cc3ccccc3)C(=O)O[C@@H]12" ?
Response: -1.41

Prompt: Would you mind doing "Cc1c(NC(=O)/C(C#N)=C/c2ccc(Cl)cc2)c(=O)n(-c2ccccc2)n1C" as well?
Response: 0.244

* * *

# assay.system: Fibroblast growth factor 10 (Homo sapiens) (UniProt O15520)
# Sequence (O15520 whole entry, looked up): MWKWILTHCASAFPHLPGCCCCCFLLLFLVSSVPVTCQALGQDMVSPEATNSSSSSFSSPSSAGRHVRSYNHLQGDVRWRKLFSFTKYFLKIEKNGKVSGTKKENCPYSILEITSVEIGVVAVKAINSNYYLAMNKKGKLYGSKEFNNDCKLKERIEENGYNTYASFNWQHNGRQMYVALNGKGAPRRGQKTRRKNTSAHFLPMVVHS
# experimental.protocol: FGF10 binders on small-molecule microarrays, primary screen, biochemical, small-molecule microarray, 635 nm fluorescence (AID 1102)
# conditions.used: FGF10 binding, fluorescence 635 nm, higher = more signal
assay.readout: composite z-score
# output: bare number, no unit

Prompt: If you can, please state the reported composite z-score value of COC(=O)C1=CC(CCCO)=CC(C2CC2)N(Cc2cccc(OC(F)(F)F)c2)C=C1C(=O)OC (stereo not drawn) .
Response: 0.107

Prompt: Next: "CO[C@H]1O[C@H](CO)[C@@H](OC(=O)Nc2ccccc2)[C@@H]2OC(=O)[C@H](Cc3ccccc3)C/C=C/C[C@@H](Cc3ccccc3)C(=O)O[C@@H]12"
Response: 1.04

Prompt: Query C=CCC(OC(C)=O)[C@@H]1[C@@H](N(Cc2ccc(-c3cccc(C(F)(F)F)c3)o2)C(=O)Cc2ccc(F)cc2)c2cc(OCCCO)ccc2N1C(=O)c1ccc2ccccc2n1 (stereo partly drawn) next
Response: -0.218

Prompt: Next compound up: CN1C(=O)C2C=CC(C(O)c3ccc(-c4ccccc4)s3)N(Nc3ccccc3)C2C1=O (stereo not drawn)
Response: 0.737

Prompt: Same for NC(=O)N1C(=O)C2C(C1=O)C1C=C(CCCO)C2C(c2ccc(CN3CCCC3)cc2)N1Cc1cccc(OC(F)(F)F)c1 (stereo not drawn)
Response: 0.374

Prompt: And for "Cc1ccc(F)cc1S(=O)(=O)N[C@@H]1CCN(Cc2ccc3[nH]ccc3c2)C1" ?
Response: 0.482

Prompt: Moving on to "CCCC[C@@H]1C[C@H]1[C@@H](NC(=O)c1ccc(C(F)(F)F)cc1)c1ccc(C(=O)OC)cc1"
Response: 0.743

Prompt: Proceed to "CCCC[C@@H](O)C1=C(COC)Cn2c(=O)n(-c3ccccc3)c(=O)n2[C@H]1CO"
Response: 0.035

Prompt: Ok, now COC(=O)C1(CC(C)C)C=C2C(=C(C(C)C)C(=O)C2C)CN1 (stereo not drawn)
Response: -0.296

Prompt: Entry CC(=O)c1ccc(C(O)C2C=CC3C(=O)NC(=O)C3N2Nc2ccc(Cl)cc2Cl)cc1 (stereo not drawn) please
Response: 0.554

Prompt: Follow-up item: "COCCOC(=O)N1C(=O)[C@@]2(c3cc(C#CCC(C(=O)OC)C(=O)OC)ccc31)[C@H](C(=O)N1CCc3cc(OC)c(OC)cc3C1)[C@H]1C(=O)O[C@H](c3ccccc3)[C@H](c3ccccc3)N1[C@@H]2c1ccc(O)cc1"
Response: 1.24

Prompt: C=CCC(OC(C)=O)[C@@H]1[C@@H](N(Cc2ccc(-c3ccccc3)cc2)C(=O)c2ccc(-c3ccccc3)cc2)c2cc(OCCCO)ccc2N1C(=O)c1ccc2ccccc2n1 (stereo partly drawn) , same question.
Response: 0.46

Prompt: Then what about the compound "CCCC=C(CCC)[C@@H](NC(=O)c1ccccc1)c1ccc(C(=O)OC)cc1" ?
Response: 1

* * *

# assay.system: Torsin-1A (Homo sapiens) (UniProt O14656)
# Sequence (O14656 whole entry, looked up): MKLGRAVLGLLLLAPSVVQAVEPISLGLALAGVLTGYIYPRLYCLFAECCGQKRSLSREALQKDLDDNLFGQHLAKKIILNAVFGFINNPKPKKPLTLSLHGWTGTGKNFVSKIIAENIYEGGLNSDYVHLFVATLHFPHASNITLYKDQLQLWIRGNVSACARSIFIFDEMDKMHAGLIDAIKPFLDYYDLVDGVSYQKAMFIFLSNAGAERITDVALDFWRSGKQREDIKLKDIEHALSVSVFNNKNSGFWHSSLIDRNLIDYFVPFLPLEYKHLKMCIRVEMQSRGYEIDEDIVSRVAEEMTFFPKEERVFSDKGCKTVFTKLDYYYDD
# experimental.protocol: small-molecule binders of mutant TOR1A in lysate, primary screen, cell lysate, small-molecule microarray, COS7 lysate, 635/667 nm fluorescence (AID 1150);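 further: score pools 667 nm emission and signal to noise measuring lysate protein binding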
# conditions.used: COS7 hTOR1A mutant lysate, 635 nm fluorescence, higher = more signal
Output 1 for composite z-score not less than 1; output 0 otherwise.

Prompt: Given "C=C(COC)/C(=C/C[C@@H](OC(C)=O)c1ccccc1OCCO)c1cc(C(=O)OC)ccc1OC" , state whether its composite z-score is at least 1.
Response: 0

Prompt: Follow-up item: "[N-]=[N+]=NCc1ccccc1C[C@]1(C(=O)O)COC(c2ccc(OCCCO)cc2)=N1"
Response: 0

Prompt: And what about the compound CN1C(=O)C2C(C1=O)C1C=C(c3ccc(CO)cc3)C2C(c2cccs2)N1C (stereo not given) ?
Response: 0

Prompt: Now consider "C=CCNC(=O)[C@@H]1[C@H]2C(=O)O[C@H](c3ccccc3)[C@H](c3ccccc3)N2[C@H](c2ccccc2OCCO)[C@@]12C(=O)N(C(=O)OCCOC)c1ccc(C#CCCO)cc12" and answer again.
Response: 1

* * *

# experimental.protocol: E. coli acrAB mutant growth effects, primary screen, E. coli filamentation inducers, strain DRC39, OD650, 24 h (AID 1178);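 further: growth measured as culture turbidity by optical density at 650 nm; test concentration not given here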
# conditions.used: higher = more signal, called active from +8 up or from −8 down
I'd be grateful if you could share measured z-score for these entries.
Number only, no unit.

Prompt: For the molecule "COCCOC(=O)N1C(=O)[C@@]2(c3cc(C#CCCO)ccc31)[C@H](C(=O)N1CCc3cc(OC)c(OC)cc3C1)[C@H]1C(=O)O[C@H](c3ccccc3)[C@H](c3ccccc3)N1[C@@H]2c1ccccc1OCCO" , what z-score is on record?
Response: 0.497

Prompt: Queued: "CN(C)CCCC[C@@H]1NC(=O)[C@H]2C[C@@H](C(=O)O)[C@@H](c3cccc(OCCO)c3)N2C1=O"
Response: -0.0925

Prompt: Then what about the molecule "COCCCNC(=O)[C@@H]1c2ccccc2C(=O)N(C2CCCCC2)[C@H]1c1ccc(CO)cc1" ?
Response: 0.0359

Prompt: Further, for "C[C@]1(C(=O)NCC(F)(F)F)c2ccccc2C(=O)N(Cc2ccc(OC(F)(F)F)cc2)[C@H]1c1ccc(CO)cc1" ?
Response: -0.414

Prompt: And the next one, "CN(C)C(=O)[C@]1(Cc2ccccc2CN=[N+]=[N-])N=C(c2ccc(OCCCO)cc2)O[C@@H]1c1ccccc1N=[N+]=[N-]" ?
Response: 0.377

Prompt: What about "C=CCOC(=O)[C@H]1[C@@H]2C(=O)O[C@@H](c3ccccc3)[C@@H](c3ccccc3)N2[C@@H](c2ccc(OCCOC(=O)[C@@H]3C[C@@H]4C(=O)N[C@@H](CC(C)C)C(=O)N4[C@@H]3c3ccc(O)cc3)cc2)[C@]12C(=O)Nc1ccc(I)cc12" ?
Response: 0.214

Prompt: Moving on to "COC(=O)[C@@]1(Cc2ccccc2)[C@H]2c3cc(C(=O)N4CCCC4)n(Cc4ccc(C(F)(F)F)nc4)c3C[C@H]2CN1C(=O)c1ccccc1"
Response: 0.018

Prompt: Queued: "[N-]=[N+]=NCc1ccccc1C[C@]1(C(=O)O)COC(c2ccc(OCCCO)cc2)=N1"
Response: -0.149

Prompt: Next molecule up: "CCCC[C@@H](O)C1=C(COC)Cn2c(=O)n(-c3ccccc3)c(=O)n2[C@H]1CO"
Response: 1.15

Prompt: Input "COCC(=C=CC[C@@H](O)c1cccc(OCCO)c1)C[C@@H](O)COCc1ccccc1"
Response: 0.481
